Biological target: spike glycoprotein of wild type SARS-CoV-2 virus (SARS-CoV-2, UniProt P0DTC2 14-1273)
Assay: cell-based or functional assay
MEASUREMENT LABEL: Neutralization by PRNT EC50 (nM)
Quick reminder: number only, in nM, skip the unit.

// known answers, use as guide
# BINDER, MEASURED VALUE
rows = [
    ("FB 1E (antibody, V domains shown) VH: EVQLVESGAEVKKPGESLKISCQGSGYRFNSYWIAWVRQMPGKGLEWMGSIFPTDSDIRYNPSFQGQVTISADKSISIAYLQWSSLKASDTAIYYCARHWASMVRGVIRASHYYGMDVWGQGTTVTVSS VL: QSVLTQPPSASGSPGQSVTISCSGASSDIGDYNYVSWYQQLPGKAPKLLIYEVTKRPSGVPDRFSGSKSGNTASLTVSGLQADDEADYYCSSYAFGGSDIRVFGGGTKLAVL", 36),
    ("EW 9C (antibody, V domains shown) VH: EVQLVESGGGVVQPGASLRLSCVASGFTFNNFGFHWVRQAPGKGLEWLAVISYEGSKTYYAESLKGRFTISRDTSKNTVYLQMNSLRAEDTAVYYCARATSIFWFGEGRNWFDPWGQGTMVTVSS VL: EIVLTQSPGTVSLSAGERATLSCRASQNVGTDLAWYVQRPGQAPRLLIYDTSNKATGIPARFSGRGSGTDFTLTIDSLEPEDFAVYYCQQRSNWPLTFGGGTKVEIR", 133),
]

// moving on: another record for Neutralization by PRNT EC50
The reported value for FJ 1C (antibody, V domains shown) VH: QVQLQESGPGLVKPSETLSLTCTVSGYSISSGYYWGWIRQPPGKGLEWIGSIYHSGSTYYNPSLKSRVTISVDTSKNQFSLKLSSVTAADTAVYYCARDKALLWFGELFTNLFDYWGQGTLVTVSS VL: QSALTQPASVSGSPGQSITISCTGTSSDVGGYNYVSWYQQHPGKAPKLMIYEVSNRPSGVSNRFSGSKSGNTASLTISGLQAEDEANYYCSSYTSSSTLVFGGGTKLTVL in terms of Neutralization by PRNT EC50 is 55.5
